- SYSTEM TESTED: TRKA (Homo sapiens)
- Construct: purchased Carna 08-186
- Sequence (P04629 33-796): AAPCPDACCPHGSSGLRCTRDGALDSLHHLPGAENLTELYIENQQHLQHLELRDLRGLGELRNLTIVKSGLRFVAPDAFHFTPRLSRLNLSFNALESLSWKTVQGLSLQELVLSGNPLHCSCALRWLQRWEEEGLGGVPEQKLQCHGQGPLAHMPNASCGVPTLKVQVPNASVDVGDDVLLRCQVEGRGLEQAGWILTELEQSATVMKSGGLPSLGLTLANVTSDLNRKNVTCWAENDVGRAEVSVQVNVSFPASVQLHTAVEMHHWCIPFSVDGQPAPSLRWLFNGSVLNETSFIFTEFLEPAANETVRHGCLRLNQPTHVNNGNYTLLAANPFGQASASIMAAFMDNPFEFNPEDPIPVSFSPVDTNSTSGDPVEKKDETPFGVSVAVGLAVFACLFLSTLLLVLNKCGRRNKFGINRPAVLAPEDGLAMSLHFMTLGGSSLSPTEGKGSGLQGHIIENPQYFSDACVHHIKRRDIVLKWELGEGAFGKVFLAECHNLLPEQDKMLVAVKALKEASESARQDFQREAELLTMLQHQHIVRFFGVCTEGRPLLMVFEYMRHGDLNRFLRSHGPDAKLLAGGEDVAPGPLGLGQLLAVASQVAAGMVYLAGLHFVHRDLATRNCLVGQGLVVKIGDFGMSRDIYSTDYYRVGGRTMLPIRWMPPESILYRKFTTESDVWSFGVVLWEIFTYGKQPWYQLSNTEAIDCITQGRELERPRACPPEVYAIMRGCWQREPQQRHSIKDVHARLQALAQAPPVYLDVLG
- PROTOCOL NOTES: Determination of inhibitory activity against TRKA kinase (ADP-Glo Kinase Assay)
- Type: biochemical
- EXPERIMENTAL SETUP: ATP 5 μM, Poly (4:1 Glu, Tyr) Peptide 0.03 mg/ml
METRIC: IC50 (nM)
Give the number; nM is assumed, so skip it.

The molecule listed as CC(Oc1ccc2[nH]nc(-c3nc4c([nH]3)CN(CC3CCN(C)CC3)C4)c2c1)c1cc(F)cc(C#N)c1 (stereo not drawn) [Example 47] has a reported IC50 of 14.2

Field IC50 (entry CCN1CCC(CN2Cc3nc(-c4n[nH]c5ccc(OC(C)c6cc(F)cc(F)c6)cc45)[nH]c3C2)CC1 (stereo not drawn) [Example 17] ) reads 0.66

# molecule CC(Oc1ccc2[nH]nc(-c3nc4c([nH]3)CN(C3CCN(C)C3)C4)c2c1)c1cc(F)cc(F)c1 (stereo not drawn) [Example 41] ; its IC50 = 7.4

Lookup result for CC(Oc1ccc2[nH]nc(-c3nc4c([nH]3)CN(CCC3CCN(C)CC3)C4)c2c1)c1cc(F)cc(F)c1 (stereo not drawn) [Example 21] ; measured IC50: 1.8

CC(Oc1ccc2[nH]nc(-c3nc4c([nH]3)CN(C(=O)OC3CCN(C)C3)C4)c2c1)c1cc(F)cc(F)c1 (stereo not drawn) [Example 30] yielded IC50 of 0.94

Per the records, this molecule ( CC(Oc1ccc2[nH]nc(-c3nc4c([nH]3)CN(C(C)C3CN(C)C3)C4)c2c1)c1cc(F)cc(F)c1 (stereo not drawn) [Example 34] ) has IC50 equal to 4.6

The value of IC50 measured for the molecule CC(Oc1ccc2[nH]nc(-c3nc4c([nH]3)CN(C3CCC(N(C)C)C3)C4)c2c1)c1cc(F)cc(F)c1 (stereo not drawn) [Example 46] turned out to be 10.6

Record summary for CCN1CCCC(N2Cc3nc(-c4n[nH]c5ccc(OC(C)c6cc(F)cc(F)c6)cc45)[nH]c3C2)C1 (stereo not drawn) [Example 43] : reported IC50 = 1.9

Record CC(Nc1ccc2[nH]nc(-c3nc4c([nH]3)CNC4)c2c1)c1cc(F)cc(F)c1 (stereo not drawn) [Example 1] , field IC50: 1.8
